Biological target: T1, ST2 on the effector cells (KU812, KU812/NF-κB-1#, HUVEC, HMC-1) (human, UniProt Q01638 19-556)
T1 sequence (looked up): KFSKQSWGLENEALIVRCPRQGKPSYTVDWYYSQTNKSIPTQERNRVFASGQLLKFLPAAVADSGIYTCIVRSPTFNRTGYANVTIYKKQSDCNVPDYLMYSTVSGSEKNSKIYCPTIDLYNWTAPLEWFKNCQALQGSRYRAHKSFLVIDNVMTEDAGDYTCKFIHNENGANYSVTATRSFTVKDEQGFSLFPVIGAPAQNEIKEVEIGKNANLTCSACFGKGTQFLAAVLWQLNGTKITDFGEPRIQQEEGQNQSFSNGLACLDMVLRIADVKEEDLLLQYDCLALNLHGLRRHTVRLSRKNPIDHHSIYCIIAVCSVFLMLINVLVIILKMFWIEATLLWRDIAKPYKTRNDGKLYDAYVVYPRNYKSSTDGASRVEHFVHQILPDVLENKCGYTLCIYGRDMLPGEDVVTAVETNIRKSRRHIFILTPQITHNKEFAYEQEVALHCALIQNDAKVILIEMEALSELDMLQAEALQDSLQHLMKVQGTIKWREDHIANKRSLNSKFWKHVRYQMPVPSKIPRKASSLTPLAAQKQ
Test: cell-based or functional assay
Please respond with reported Maximum inhibition rate, HMC-1 IL8 production by IL33 for every item in the list.
Write it as a number; the unit % goes unstated.

Task item: Which Maximum inhibition rate, HMC-1 IL8 production by IL33 value belongs to 5888-153-H3L2 (antibody, human IgG4 S228P, kappa, V domains shown, Humanized antibody) VH: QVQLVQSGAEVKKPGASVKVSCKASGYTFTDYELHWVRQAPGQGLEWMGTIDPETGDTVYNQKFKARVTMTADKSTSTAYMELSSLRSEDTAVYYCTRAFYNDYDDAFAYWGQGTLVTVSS VL: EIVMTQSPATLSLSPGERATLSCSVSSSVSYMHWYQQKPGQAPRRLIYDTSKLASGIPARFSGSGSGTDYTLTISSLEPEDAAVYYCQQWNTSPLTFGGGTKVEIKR ?
Reply: 83.3

Task item: Which Maximum inhibition rate, HMC-1 IL8 production by IL33 value belongs to 5888-379-H1L0 (antibody, human IgG4 S228P, kappa, V domains shown, Humanized antibody) VH: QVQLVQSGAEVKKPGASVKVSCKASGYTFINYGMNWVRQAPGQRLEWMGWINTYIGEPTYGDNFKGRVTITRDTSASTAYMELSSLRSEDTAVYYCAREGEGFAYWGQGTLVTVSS VL: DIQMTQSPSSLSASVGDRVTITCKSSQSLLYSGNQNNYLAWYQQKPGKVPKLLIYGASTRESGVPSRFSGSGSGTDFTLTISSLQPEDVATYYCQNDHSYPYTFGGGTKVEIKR ?
Reply: 85.6

Task item: Which Maximum inhibition rate, HMC-1 IL8 production by IL33 value belongs to Control antibody CNTO7160 (antibody, human IgG4 S228P, kappa, V domains shown, Known anti-ST2 control antibody) VH: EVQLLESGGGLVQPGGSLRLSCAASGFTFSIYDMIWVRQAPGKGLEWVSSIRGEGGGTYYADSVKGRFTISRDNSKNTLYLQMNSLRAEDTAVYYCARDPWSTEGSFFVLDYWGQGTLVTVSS VL: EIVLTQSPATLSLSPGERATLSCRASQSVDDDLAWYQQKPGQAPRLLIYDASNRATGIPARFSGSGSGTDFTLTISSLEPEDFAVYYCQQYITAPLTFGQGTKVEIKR ?
Reply: 82.3

Task item: Which Maximum inhibition rate, HMC-1 IL8 production by IL33 value belongs to 5888-153-H0L1 (antibody, human IgG4 S228P, kappa, V domains shown, Humanized antibody) VH: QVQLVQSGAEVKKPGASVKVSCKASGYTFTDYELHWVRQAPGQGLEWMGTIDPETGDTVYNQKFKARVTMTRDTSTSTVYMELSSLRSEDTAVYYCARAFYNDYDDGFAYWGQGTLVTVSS VL: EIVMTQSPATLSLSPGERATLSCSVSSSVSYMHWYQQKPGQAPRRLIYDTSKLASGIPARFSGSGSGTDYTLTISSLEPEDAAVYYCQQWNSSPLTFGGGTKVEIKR ?
Reply: 87.2

Task item: Which Maximum inhibition rate, HMC-1 IL8 production by IL33 value belongs to 5887-41-H1L0 (antibody, human IgG4 S228P, kappa, V domains shown, Humanized antibody) VH: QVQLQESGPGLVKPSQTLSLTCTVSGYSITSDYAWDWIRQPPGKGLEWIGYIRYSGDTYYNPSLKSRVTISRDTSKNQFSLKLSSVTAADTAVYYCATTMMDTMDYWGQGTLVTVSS VL: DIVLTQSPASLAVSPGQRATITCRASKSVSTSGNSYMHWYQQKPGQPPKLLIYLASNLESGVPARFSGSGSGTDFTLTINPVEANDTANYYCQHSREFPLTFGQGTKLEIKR ?
Reply: 77.8

Task item: Which Maximum inhibition rate, HMC-1 IL8 production by IL33 value belongs to 5886-156-H1L0 (antibody, human IgG4 S228P, kappa, V domains shown, Humanized antibody expressed in CHO-K1, purified by protein A) VH: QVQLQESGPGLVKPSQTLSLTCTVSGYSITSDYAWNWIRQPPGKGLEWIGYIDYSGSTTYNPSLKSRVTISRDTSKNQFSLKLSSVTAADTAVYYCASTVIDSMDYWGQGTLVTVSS VL: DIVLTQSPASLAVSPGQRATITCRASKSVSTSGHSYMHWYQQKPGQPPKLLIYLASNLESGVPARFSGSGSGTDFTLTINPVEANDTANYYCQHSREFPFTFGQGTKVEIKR ?
Reply: 81

From: patent US12624112
